Sourced from PubChem BioAssay

# targetEntity: NADPH oxidase 4 (Homo sapiens) (UniProt Q9NPH5)
# Sequence (Q9NPH5 whole entry, looked up): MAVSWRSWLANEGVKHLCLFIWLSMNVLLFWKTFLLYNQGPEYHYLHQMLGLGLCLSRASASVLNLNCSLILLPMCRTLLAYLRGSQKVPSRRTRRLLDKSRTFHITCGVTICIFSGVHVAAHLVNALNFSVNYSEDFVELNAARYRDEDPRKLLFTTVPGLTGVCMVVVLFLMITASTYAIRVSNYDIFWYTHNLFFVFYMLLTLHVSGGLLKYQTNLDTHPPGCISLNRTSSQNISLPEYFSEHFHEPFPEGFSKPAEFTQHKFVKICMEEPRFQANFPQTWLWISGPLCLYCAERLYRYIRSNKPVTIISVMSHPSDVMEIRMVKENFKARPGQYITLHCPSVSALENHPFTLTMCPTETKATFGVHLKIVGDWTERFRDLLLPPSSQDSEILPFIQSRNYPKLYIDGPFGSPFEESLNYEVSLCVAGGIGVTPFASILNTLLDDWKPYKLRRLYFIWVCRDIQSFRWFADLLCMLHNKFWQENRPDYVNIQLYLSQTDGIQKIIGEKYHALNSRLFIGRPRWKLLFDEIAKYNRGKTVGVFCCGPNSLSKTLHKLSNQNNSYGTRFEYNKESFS
# measurementNotes: NOX4-dependent H2O2 signal modulators, primary screen, NOX inhibitor project, cell-based, HEK293-NOX4, tetracycline-induced, Amplex Red fluorescence (AID 1160)
# assaySetup: 45 min, higher = more signal, called active from +8 up or from −8 down
assayMetric: z-score
Enter a number only.

Given "O=C(c1ccccc1)N1C(=O)[C@]2(COC(c3ccc(OCCCO)cc3)=N2)Cc2ccccc21" , state its recorded z-score.
0.0715

Look at this compound and give its reported z-score. "CCCC[C@@H]1C[C@H]1[C@@H](NC(=O)C(C)(C)C)c1ccc(C(F)(F)F)cc1"
-4.44
